- Experiment Notes: Log P by HPLC on reversed phase columns (EEC directive 79/831 Annex V.A8)
- Type: physicochemical
- Condition Parameters: method [a]
Measurement Type: LogP

// below: answered molecules
- Molecule: "CCOC(=O)C[C@H](NC(=O)c1sc(Br)c(Br)c1Cl)C(=O)OCC [1.0545]"
  LogP: "4.15^[a]"
- Molecule: "O=C(NC(C(=O)OC1CCC1)C1CC1)c1sc(Br)c(Br)c1Cl (centres unmarked) [1.0885]"
  LogP: "5.08^[a]"
- Molecule: "COC(=O)C(C)(C)NC(=O)c1sc(Br)c(Br)c1F [1.0540]"
  LogP: "3.34^[a]"
- Molecule: "COC(=O)C(CC(F)F)NC(=O)c1sc(Cl)c(Br)c1Cl (centres unmarked) [1.0184]"
  LogP: "3.64^[a]"

Please examine the following record next.
Input: Tell me the measured LogP of CCOC(=O)[C@H](CO)NC(=O)c1sc(Cl)c(Cl)c1Br [1.0816] , please.
Output: 2.84^[a]
